Attribute: abundance fitness
B1: Histone-lysine N-methyltransferase SETD2, residues 2382 to 2430; numbered along this chain, Q9BYW2 (parent)
chain: SPPKPKTIVLPPNWKTARDPEGKIYYYHVITRQTQWDPPTWESPGDDAS

Variants of: B1
protocol.summary: abundance fitness (aPCA) (normalised: wild type 0, dead -1); higher = more abundant; growth selection in yeast, the domain comes from the species named
recorded.conditions: Homo sapiens

Example variants with recorded abundance fitness:
K6D: -0.074
L10A: -0.759
G22L: -0.593
T34K: -0.605

With those in mind, consider the next variant.
abundance fitness for "R32F" ?
-0.691
